target: T1, recombinant human HPC4-tagged IL-6 (human, UniProt P05231 30-212); assay: SPR, HPC4-IL-6 captured on anti-HPC4 antibody, VHH injected, 25 C, 1:1 model
T1 construct: captured on an anti-HPC4 antibody in SPR; also called HPC4-human IL6
T1 sequence (P05231 other isoform, or with tags, fused parts or gaps limits assumed): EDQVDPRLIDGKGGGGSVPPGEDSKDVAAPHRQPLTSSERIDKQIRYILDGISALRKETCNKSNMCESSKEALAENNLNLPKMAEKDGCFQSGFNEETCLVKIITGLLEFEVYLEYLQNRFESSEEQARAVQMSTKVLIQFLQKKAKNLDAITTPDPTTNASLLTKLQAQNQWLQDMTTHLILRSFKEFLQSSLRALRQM
Quick reference for koff among some binders
# output: bare number, implied unit s⁻¹

Polypeptide_31 (VHH, VHH_1.7 with C-terminal His tag extension E1; also called [VHH_1.7]-E1) VHH: EVQLVESGGGLVQPGGSLQLSCTTSGRKFDEYAVGWFRQGPGQEREFVADIGENAENTWYAESVLGRFTISRDDAKNTVYLEMDGLKPEDTAVYYCAADKYGVGGNAQGYYDSWGQGTQVTVSS ... 0.000154
Polypeptide_27 (VHH, VHH_1.4 with C-terminal His tag extension E1; also called [VHH_1.4]-E1) VHH: EVQLVESGGGLVQPGGSLQLSCTTSGRKFDEYAVGWFRQAPGKEREFVADIGENAENTWYAHSVLGRFTISRDDAKNTVYLQMDSLKPEDTAVYYCAADKYGVGGNAQGYYDSWGQGTQVTVSS ... 0.000163
Polypeptide_22 (VHH, VHH_1.2 with C-terminal His tag extension E1; also called [VHH_1.2]-E1) VHH: EVQLVESGGGLVQPGGSLKLSCTTSGRRFSEYAVGWFRQGPGKEREFVADIGEQAENTWYAESVLGRFTISRDDAKNTVYLQMDSLKPEDTAVYYCAADKYGVGGNAQGYYDSWGQGTQVTVSS ... 0.000147

In one line, give reported koff of the entry Compound 2 (VHH, Chem. 24 (C16 diacid substituent) on Cys in position 4 and on Cys in position 6 of the extension (SEQ ID NO: 72), Polypeptide derivative; extension E2 at the C-terminus of the VHH; also called VHH_1.13-E2 with 2x Chem. 24) VHH: EVQLVESGGGLVQAGGSLQLSCTASGGTFSEYAMAWFRQAPGQEREFVTDIGESGGTWYADSVKGRFTISRDNAKNTVYLQMDSLRPEDTAVYYCAADSYGVGGGAERYYDSWGQGTQVTVSS .
0.000348

Output koff of Compound 12 (VHH, Chem. 24 (C16 diacid substituent) on Cys in position 4 and on Cys in position 6 of the extension (SEQ ID NO: 72), Polypeptide derivative; extension E2 at the C-terminus of the VHH; also called VHH_1.17-E2 with 2x Chem. 24) VHH: EVQLVESGGGLVQPGGSLQLSCAASGFTFSNYWMYWVRQAPGQGLEWVSGINTGGSTPDYADSVKGRFAISRDNAKNTLYLQMDSLRPEDTAVYYCAADTPRVFRLDHYSPLGQGTQVTVSS
0.000216

Look up koff of Polypeptide_24 (VHH, VHH_1.3 with C-terminal His tag extension E1; also called [VHH_1.3]-E1) VHH: EVQLVESGGGLVQPGGSLQLSCTTSGRRFSEYAVGWFRQGPGKEREFVADIGEQAENTWYAHSVLGRFTISRDDAKNTVYLQMDSLKPEDTAVYYCAADKYGVGGNAQGYYDSWGQGTQVTVSS and report it.
0.000132

Tell me koff reported for Polypeptide_28 (VHH, VHH_1.5 with C-terminal His tag extension E1; also called [VHH_1.5]-E1) VHH: EVQLVESGGGLVQPGGSLQLSCTTSGRKFDEYAVGWFRQGPGKEREFVADIGENAENTWYAESVLGRFTISRDDAKNTVYLQMDSLKPEDTAVYYCAADKYGVGGNAQGYYDSWGQGTQVTVSS
0.00013

Specify measured koff for Polypeptide_29 (VHH, VHH_1.6 with C-terminal His tag extension E1; also called [VHH_1.6]-E1) VHH: EVQLVESGGGLVQPGGSLKLSCTTSGRRFSEYAVGWFRQAPGKEREFVADIGEQAENTWYAESVLGRFTISRDDAKNTVYLEMDGLKPEDTAVYYCAADKYGVGGNAQGYYDSWGQGTQVTVSS .
8.69e-05
